- Tested on: Fusarium oxysporum
- Assay Overview: Test 2 for antifungal effect, plate medium: F.c
- Assay type: cell-based
- Measurement Setup: 0.16 mg/L, PDA plate medium
Reported Metric: Antifungal index (mycelial growth inhibition rate)

Some solved cases for reference:
Compound	Result
CC1(CCl)CCC(Cc2ccc(Cl)cc2)C1(O)Cn1cncn1 (single isomer, unassigned) [Compound (1-1a)]	4 (Less than 90% but not less than 80%)
CC1(CCl)CCC(Cc2ccc(F)cc2)C1(O)Cn1cncn1 (single isomer, unassigned) [Compound (1-2a)]	2 (Less than 70% but not less than 60%)
CC1(CCl)CCC(Cc2ccc(Cl)cc2)C1(O)Cn1cncn1 (single isomer, unassigned) [Compound (1-1b)]	4 (Less than 90% but not less than 80%)

Moving on to the next compound.
Q: Item: CC1(CCl)CCC(Cc2ccc(F)cc2)C1(O)Cn1cncn1 (single isomer, unassigned) [Compound (1-2b)] Test system: Fusarium oxysporum Read-out: Antifungal index (mycelial growth inhibition rate) Value: ?
Result: 3 (Less than 80% but not less than 70%)

----------
Quick reference for Antifungal index (mycelial growth inhibition rate) among some compounds
- Tested on: Microdochium nivale
- Assay Overview: Test 1 for antifungal effect, plate medium: M.n
- Format: cell-based
- Measurement Setup: 0.31 mg/L, PDA plate medium

Compound	Result
CC1(CCl)CCC(Cc2ccc(Cl)cc2)C1(O)Cn1cncn1 (single isomer, unassigned) [Compound (1-1a)]	3 (Less than 80% but not less than 70%)
CC1(CCl)CCC(Cc2ccc(F)cc2)C1(O)Cn1cncn1 (single isomer, unassigned) [Compound (1-2b)]	1 (Less than 60%)
CC1(CCl)CCC(Cc2ccc(F)cc2)C1(O)Cn1cncn1 (single isomer, unassigned) [Compound (1-2a)]	1 (Less than 60%)

Moving on to the next compound.
Q: Which Antifungal index (mycelial growth inhibition rate) value is on record for CC1(CCl)CCC(Cc2ccc(Cl)cc2)C1(O)Cn1cncn1 (single isomer, unassigned) [Compound (1-1b)] ?
Result: 1 (Less than 60%)

----------
- System: Gaeumannomyces graminis
- Assay Overview: Test 1 for antifungal effect, plate medium: G.g
- Assay type: cell-based
- Measurement Setup: 0.63 mg/L, PDA plate medium
Reported Metric: Antifungal index (mycelial growth inhibition rate)

Some solved cases for reference:
Compound	Assayed System	Result
CC1(CCl)CCC(Cc2ccc(Cl)cc2)C1(O)Cn1cncn1 (single isomer, unassigned) [Compound (1-1b)]	Gaeumannomyces graminis	2 (Less than 70% but not less than 60%)
CC1(CCl)CCC(Cc2ccc(F)cc2)C1(O)Cn1cncn1 (single isomer, unassigned) [Compound (1-2a)]	Gaeumannomyces graminis	5 (90% or greater)
CC1(CCl)CCC(Cc2ccc(Cl)cc2)C1(O)Cn1cncn1 (single isomer, unassigned) [Compound (1-1a)]	Gaeumannomyces graminis	5 (90% or greater)

Moving on to the next compound.
Q: Which Antifungal index (mycelial growth inhibition rate) value is on record for CC1(CCl)CCC(Cc2ccc(F)cc2)C1(O)Cn1cncn1 (single isomer, unassigned) [Compound (1-2b)] ?
Result: 4 (Less than 90% but not less than 80%)

----------
- Test system: wheat
- Assay Overview: Necrosis (adverse effects) of seed treatment on wheat seeds
- Format: in vivo
- Measurement Setup: treatment amount 200 g ai/100 kg seeds, 20 days after sowing
Quick reference for Necrosis index among some molecules

Molecule	Necrosis index
CC1(CCl)CCC(Cc2ccc(F)cc2)C1(O)Cn1cncn1 (single isomer, unassigned) [Compound (1-2b)]	3 (20% or more)

Q: Which Necrosis index value is on record for CC1(CCl)CCC(Cc2ccc(F)cc2)C1(O)Cn1cncn1 (single isomer, unassigned) [Compound (1-2a)] ?
Result: 0 (Less than 1%)

Q: Which Necrosis index value is on record for CC1(CCl)CCC(Cc2ccc(Cl)cc2)C1(O)Cn1cncn1 (single isomer, unassigned) [Compound (1-1a)] ?
Result: 0 (Less than 1%)

Q: Which Necrosis index value is on record for CC1(CCl)CCC(Cc2ccc(Cl)cc2)C1(O)Cn1cncn1 (single isomer, unassigned) [Compound (1-1b)] ?
Result: 2 (Less than 20% but not less than 5%)

----------
- System: Ustilago nuda
- Assay Overview: Test 2 for antifungal effect, plate medium: U.n
- Assay type: cell-based
- Measurement Setup: 0.16 mg/L, PDA plate medium
Reported Metric: Antifungal index (mycelial growth inhibition rate)

Compound	Result
CC1(CCl)CCC(Cc2ccc(Cl)cc2)C1(O)Cn1cncn1 (single isomer, unassigned) [Compound (1-1b)]	2 (Less than 70% but not less than 60%)
CC1(CCl)CCC(Cc2ccc(F)cc2)C1(O)Cn1cncn1 (single isomer, unassigned) [Compound (1-2a)]	1 (Less than 60%)
CC1(CCl)CCC(Cc2ccc(Cl)cc2)C1(O)Cn1cncn1 (single isomer, unassigned) [Compound (1-1a)]	1 (Less than 60%)

Q: Which Antifungal index (mycelial growth inhibition rate) value is on record for CC1(CCl)CCC(Cc2ccc(F)cc2)C1(O)Cn1cncn1 (single isomer, unassigned) [Compound (1-2b)] ?
Result: 2 (Less than 70% but not less than 60%)

----------
- System: Fusarium oxysporum
- Assay Overview: Test 2 for antifungal effect, plate medium: F.c
- Format: cell-based
- Measurement Setup: 0.08 mg/L, PDA plate medium
Reported Metric: Antifungal index (mycelial growth inhibition rate)

Molecule	Result
CC1(CCl)CCC(Cc2ccc(F)cc2)C1(O)Cn1cncn1 (single isomer, unassigned) [Compound (1-2a)]	1 (Less than 60%)
CC1(CCl)CCC(Cc2ccc(F)cc2)C1(O)Cn1cncn1 (single isomer, unassigned) [Compound (1-2b)]	2 (Less than 70% but not less than 60%)
CC1(CCl)CCC(Cc2ccc(Cl)cc2)C1(O)Cn1cncn1 (single isomer, unassigned) [Compound (1-1a)]	3 (Less than 80% but not less than 70%)

Moving on to the next molecule.
Q: Which Antifungal index (mycelial growth inhibition rate) value is on record for CC1(CCl)CCC(Cc2ccc(Cl)cc2)C1(O)Cn1cncn1 (single isomer, unassigned) [Compound (1-1b)] ?
Result: 3 (Less than 80% but not less than 70%)

----------
- Tested on: Septoria tritici
- Assay Overview: Test 2 for antifungal effect, plate medium: S.t
- Assay type: cell-based
- Measurement Setup: 0.31 mg/L, PDA plate medium
Reported Metric: Antifungal index (mycelial growth inhibition rate)

Some solved cases for reference:
Molecule	Assayed System	Result
CC1(CCl)CCC(Cc2ccc(Cl)cc2)C1(O)Cn1cncn1 (single isomer, unassigned) [Compound (1-1a)]	Septoria tritici	1 (Less than 60%)
CC1(CCl)CCC(Cc2ccc(F)cc2)C1(O)Cn1cncn1 (single isomer, unassigned) [Compound (1-2b)]	Septoria tritici	5 (90% or greater)

Q: Which Antifungal index (mycelial growth inhibition rate) value is on record for CC1(CCl)CCC(Cc2ccc(F)cc2)C1(O)Cn1cncn1 (single isomer, unassigned) [Compound (1-2a)] ?
Result: 1 (Less than 60%)

Q: Which Antifungal index (mycelial growth inhibition rate) value is on record for CC1(CCl)CCC(Cc2ccc(Cl)cc2)C1(O)Cn1cncn1 (single isomer, unassigned) [Compound (1-1b)] ?
Result: 3 (Less than 80% but not less than 70%)

----------
- Test system: Gaeumannomyces graminis
- Assay Overview: Test 1 for antifungal effect, plate medium: G.g
- Assay type: cell-based
- Measurement Setup: 0.31 mg/L, PDA plate medium
Reported Metric: Antifungal index (mycelial growth inhibition rate)

Compound	Result
CC1(CCl)CCC(Cc2ccc(F)cc2)C1(O)Cn1cncn1 (single isomer, unassigned) [Compound (1-2a)]	4 (Less than 90% but not less than 80%)
CC1(CCl)CCC(Cc2ccc(Cl)cc2)C1(O)Cn1cncn1 (single isomer, unassigned) [Compound (1-1b)]	1 (Less than 60%)
CC1(CCl)CCC(Cc2ccc(F)cc2)C1(O)Cn1cncn1 (single isomer, unassigned) [Compound (1-2b)]	1 (Less than 60%)

Moving on to the next compound.
Q: Which Antifungal index (mycelial growth inhibition rate) value is on record for CC1(CCl)CCC(Cc2ccc(Cl)cc2)C1(O)Cn1cncn1 (single isomer, unassigned) [Compound (1-1a)] ?
Result: 5 (90% or greater)

----------
- Test system: Botrytis cinerea
- Assay Overview: Test 1 for antifungal effect, plate medium: B.c
- Format: cell-based
- Measurement Setup: 0.31 mg/L, PDA plate medium
Reported Metric: Antifungal index (mycelial growth inhibition rate)

Compound	Result
CC1(CCl)CCC(Cc2ccc(Cl)cc2)C1(O)Cn1cncn1 (single isomer, unassigned) [Compound (1-1b)]	1 (Less than 60%)
CC1(CCl)CCC(Cc2ccc(F)cc2)C1(O)Cn1cncn1 (single isomer, unassigned) [Compound (1-2b)]	3 (Less than 80% but not less than 70%)
CC1(CCl)CCC(Cc2ccc(F)cc2)C1(O)Cn1cncn1 (single isomer, unassigned) [Compound (1-2a)]	5 (90% or greater)

Moving on to the next compound.
Q: Which Antifungal index (mycelial growth inhibition rate) value is on record for CC1(CCl)CCC(Cc2ccc(Cl)cc2)C1(O)Cn1cncn1 (single isomer, unassigned) [Compound (1-1a)] ?
Result: 5 (90% or greater)

----------
Quick reference for Antifungal index (mycelial growth inhibition rate) among some compounds
- Tested on: Microdochium nivale
- Assay Overview: Test 1 for antifungal effect, plate medium: M.n
- Format: cell-based
- Measurement Setup: 1.25 mg/L, PDA plate medium

Q: Which Antifungal index (mycelial growth inhibition rate) value is on record for CC1(CCl)CCC(Cc2ccc(F)cc2)C1(O)Cn1cncn1 (single isomer, unassigned) [Compound (1-2b)] ?
Result: 1 (Less than 60%)

Q: Which Antifungal index (mycelial growth inhibition rate) value is on record for CC1(CCl)CCC(Cc2ccc(Cl)cc2)C1(O)Cn1cncn1 (single isomer, unassigned) [Compound (1-1a)] ?
Result: 4 (Less than 90% but not less than 80%)

Q: Which Antifungal index (mycelial growth inhibition rate) value is on record for CC1(CCl)CCC(Cc2ccc(F)cc2)C1(O)Cn1cncn1 (single isomer, unassigned) [Compound (1-2a)] ?
Result: 3 (Less than 80% but not less than 70%)

Q: Which Antifungal index (mycelial growth inhibition rate) value is on record for CC1(CCl)CCC(Cc2ccc(Cl)cc2)C1(O)Cn1cncn1 (single isomer, unassigned) [Compound (1-1b)] ?
Result: 2 (Less than 70% but not less than 60%)
